assay: logP by HPLC on reversed-phase columns (C 18), EEC Directive 79/831 Annex V.A8; assay type: physicochemical; settings: reversed-phase HPLC column (C 18), pH 2.7, LC-MS, pH 2.7, 0.1% aqueous formic acid and acetonitrile; read-out: logP [b]
measured.metric: chromatographic logP
One number for each entry.

I have this molecule here, CC(C)c1cccc(Nc2ncc(C(F)(F)F)c(NC3CCCC3)n2)c1 [Example 257] , and I need its recorded chromatographic logP. 5.08

* * *

test: logP by HPLC on reversed-phase columns (C 18), EEC Directive 79/831 Annex V.A8; assay type: physicochemical; conditions: pH 2.3, 0.1% aqueous phosphoric acid and acetonitrile; read-out: logP [a]
measured.metric: chromatographic logP
Numbers only.

Your task in this section: give chromatographic logP for each listed record.
1. CCC(CC)Nc1nc(Cl)ncc1Cl
2. CCCCN(C)c1nc(Cl)ncc1Cl

1. 3.39
2. 3.89

* * *

experiment: logP by HPLC on reversed-phase columns (C 18), EEC Directive 79/831 Annex V.A8; assay type: physicochemical; settings: values marked [c]; footnote not given
measured.metric: logP

Past entries and their recorded results:
>>> df
                               compound  measured_metric    result
0     CCc1cccc(Nc2ncc(Cl)c(NC(C)C)n2)c1             logP  4.25[c];
1      CSCC(C)(C)Nc1nc(Nc2ccccc2)ncc1Cl             logP   4.18[c]
2          CCNc1nc(Nc2cccc(SC)c2)ncc1Cl             logP  3.46[c];
3  CSc1cccc(Nc2ncc(Cl)c(N(C)C(C)C)n2)c1             logP   4.64[c]

State recorded logP for all listed compounds.
1. CCN(C)S(=O)(=O)Cc1cccc(Nc2ncc(Cl)c(NC(C)C)n2)c1
2. CSc1cccc(Nc2ncc(Cl)c(NC(C)C)n2)c1
3. CCOCCN(C)c1nc(Nc2ccccc2)ncc1Br
4. CSCC(C)(C)Nc1nc(Nc2cccc(SC)c2)ncc1Cl
5. CC(C)Nc1nc(Nc2cccc(CC#N)c2)ncc1Cl
6. N#CCNc1nc(Nc2ccccc2)ncc1Cl
7. Cc1cccc(Nc2ncc(Cl)c(NC(C)C)n2)c1
8. CCNc1nc(Nc2ccccc2)ncc1Cl

3.18[c];
3.89[c]
3.95[c];
4.59[c]
1.69[c]
2.2[c]
3.84[c];
3.03[c];

Provide logP for all items below, preserving their order.
1. COCC(C)Nc1nc(Nc2cccc(C=O)c2)ncc1Cl (centres unmarked)
2. CC(C)Nc1nc(Nc2ccc(C(=O)N(C)C)cc2)ncc1Cl
3. CC(C)Nc1nc(Nc2cccc(CS(=O)(=O)N(C)C(C)C)c2)ncc1Cl
4. CCN(C)c1nc(Nc2ccccc2)ncc1Cl

1. 2.75[c];
2. 2.27[c];
3. 3.44[c];
4. 3.85[c];

Given the compound CCN(C)c1nc(Nc2cccc(SC)c2)ncc1Cl , what is its reported logP? 4.32[c];

* * *

assay: logP by HPLC on reversed-phase columns (C 18), EEC Directive 79/831 Annex V.A8; assay type: physicochemical; conditions: values marked [b]; footnote not given
Assignment: determine reported logP for the given compounds.

                      compound   result
0  CCN(C)c1nc(Nc2ccccc2)ncc1Cl  2.11[b]

Hi team, please reply with logP for each item in this list.
1. COc1cc(Nc2ncc(Cl)c(NC(C)C)n2)ccc1NC(C)=O
2. CNC(=O)Oc1cccc(Nc2ncc(Cl)c(NC(C)COC)n2)c1 (racemic)
3. C=CCNC(=O)c1ccc(Nc2ncc(Cl)c(NC(C)COC)n2)cc1 (racemic)
4. CC(=O)N(C)c1ccc(Nc2ncc(Cl)c(NC(C)C)n2)cc1
5. COCC(C)Nc1nc(Nc2ccc(C(=O)Nc3ccccc3)cc2)ncc1Br (racemic)
6. CC(C)Nc1nc(Nc2ccc(O)cc2)ncc1Cl
7. CCN(C)c1nc(Nc2cccc(SC)c2)ncc1Cl

1.44[b]
1.48[b]
1.64[b]
1.51[b]
1.92[b]
1.24[b]
2.99[b]

Parameters: items (list). Returns: logP for each item.
1. CNC(=O)c1cccc(Nc2ncc(Cl)c(NC(C)COC)n2)c1 (racemic)
2. CC(C)Nc1nc(Nc2cccc(OC(F)(F)C(F)F)c2)ncc1Cl
3. CC(C)Nc1nc(Nc2ccc(CC(=O)C(C)(C)C)cc2)ncc1Cl
4. CNC(=O)Oc1cccc(Nc2ncc(Br)c(NC(C)COC)n2)c1 (racemic)

1: 1.32[b]; 2: 2.88[b]; 3: 2.3[b]; 4: 1.56[b]
